# target: Shiga toxin 2 (Escherichia coli O157:H7) (UniProt P09385+P09386)
# protocol notes: E. coli 0.157:H7 Shiga Toxin SOP - stx2 screening assay
# Format: functional
# Set-up: scale not given: direction of the effect not stated beside the values
# condition summary: 30 µM
Consider the following compounds; for each one, report its Percent Effect.
Output spec: scalar in %, unitless text.

# return recorded Percent Effect for input COc1ccc(NCc2nc(=O)n(CCC(C)C)[nH]2)cc1 5.42

Specify Percent Effect for CCc1noc(CNc2ccc(F)cc2OCC2CC2)n1 and stop. 0.5

Read off the recorded Percent Effect for Cn1ccnc1CN1CCCC1c1noc(C2CC2)n1 (centres undefined) -7.56

Identify the reported Percent Effect for the following entry. O=C(C1CCC1)N1CCC2(CC1)OCCO2 -1.29

Complete the entry with Percent Effect for O=C(CO)N1CCC(c2cncc(-c3cccc(Cl)c3)n2)CC1 -9.28

Report Percent Effect, nothing else, for this compound: COc1ccccc1OCCN1CCC(N2CCNC2=O)CC1 21

Please give the documented Percent Effect of O=C(CCc1nc2cccnc2[nH]1)NCc1cccnc1 -44

Give me measured Percent Effect, please, for this compound: Cc1nc(C)n(CC2CCCCN2CC(=O)Nc2ccncc2)n1 (centres undefined) -16.8

Specify reported Percent Effect for the compound shown: Fc1cccc(-c2nc(CN3CCOC(Cn4cncn4)C3)co2)c1 (centres undefined) 1.8

Give the value of Percent Effect reported for the following: O=C(CCC1CCCC1)NCCn1nc(C2CCNC2)c2cccnc21 (centres undefined) -19.4

Given CCc1c(C(=O)NCC2CCS(=O)(=O)C2)cnn1-c1ccc(C)cc1 (centres undefined) , respond with its Percent Effect. -0.796

For the compound CC(NC(=O)NCCNc1cnccn1)c1cccs1 (centres undefined) , give its reported Percent Effect. -34.6

Kindly indicate its recorded Percent Effect. Item: CC(C)(C)C(=O)N1C[C@H](c2ccsc2)[C@H]2CN(Cc3cccs3)CC[C@H]21 -20.2

Please indicate Percent Effect recorded for COCC(=O)N1CCC2(CC1)CC(CC(=O)NC1CC1)c1ccccc12 (centres undefined) 9.56

Name the recorded Percent Effect of the compound listed here: Cc1n[nH]c(C)c1NC(=O)CN1CCn2c(nnc2C(C)C)C1 13.2

Determine its reported Percent Effect: CCSc1cc(C(=O)NCCC(=O)Nc2ccccn2)ccn1 -56.5

Please look at this compound and report its Percent Effect: COc1cccc(C(=O)N2CCCC(c3cc(C)[nH]n3)C2)c1OC (centres undefined) 27

Give the value of Percent Effect reported for the following: Cc1nc(Nc2ncccn2)cc(C2CCCN2C2CCOCC2)n1 (centres undefined) -0.835

# return recorded Percent Effect for entry CN(C)[C@@H]1CCN(C(=O)NC2CCCC2)[C@H]1Cc1cnn(C)c1 -11.7

For the compound CN(C)C(=O)C1CN(Cc2ccccc2)CCN(S(C)(=O)=O)C1 (centres undefined) , give its measured Percent Effect value. -6.7

State its Percent Effect for this compound: OC(CN1CCCCCCC1)c1ccc(F)cc1 (centres undefined) 10.8

Recall and state the measured Percent Effect for O=C1CN(Cc2nnc(-c3ccc(Br)cc3)o2)CCN1 . -95.1

Note Percent Effect for the compound shown: CCN1CCC(NC(=O)CN2CCCC2Cn2cncn2)CC1 (centres undefined) -12.3

Supply measured Percent Effect of CC(C)C1CN(c2ncc(F)cn2)CCC(=O)N1Cc1ccc(F)cc1 (centres undefined) in your reply. -4.93

---

# target: Aspartate--tRNA(Asp/Asn) ligase (Mycobacterium tuberculosis (strain ATCC 25618 / H37Rv)) (UniProt P9WFW3); further: in the data most compounds retested in dose-response had high values
# protocol notes: Assay for Asp RNA synthetase-1 from Mycobacterium tuberculosis
# Assay type: functional
# Parameters: scale not given: direction of the effect not stated beside the values
# condition summary: 30 µM
Consider the following molecules; for each one, report its Percent Effect.
API: value field is a number in %; no unit string.

Retrieve Percent Effect measured for CN1N=C(C(=O)Nc2cc(F)ccc2OCC2CCCO2)CCC1=O (stereo unspecified) and print it. -1.12

# return recorded Percent Effect for input CC(NC(=O)c1nc(=O)[nH][nH]1)c1ccc(OCC2CC2)c(F)c1 (stereo unspecified) -2.07

Query Percent Effect for Cc1cc(C)nc(N2Cc3cnn(Cc4ccc(F)cc4)c3C2)n1 -2.29

Note Percent Effect for the molecule shown: Cn1cc(CN2CCc3c(nc(-c4ccccn4)[nH]c3=O)C2)cn1 -3.63

Answer with the recorded Percent Effect of Cc1ccccc1S(=O)(=O)N1CCCCC1c1ccn[nH]1 (stereo unspecified) only. 0.632

For the molecule CC(C)C1CN(C(=O)c2nccnc2N)CCS1 (stereo unspecified) , give its reported Percent Effect. 13

Determine its reported Percent Effect: COc1cccc(CNC(CN2CCN(C)CC2)c2ccccc2)c1 (stereo unspecified) 3.94

Look up and state reported Percent Effect for Cc1nn(C)c(N(C)C)c1CNCc1cccnc1 -1.51

For the molecule Cc1cc(C)n(CC(C)CNC(=O)[C@@H](C)NC(=O)OC(C)(C)C)n1 (stereo partly specified) , report Percent Effect. -1.38

In one line, give reported Percent Effect of the entry CCC1=N[C@@]2(CC[C@@H]3CN(Cc4ccc(Cl)cc4)C[C@@H]32)C(=O)N1C . 3.65

Determine from records and report Percent Effect for Cc1ccccc1C(=O)Nc1cnn(CC(=O)NC2CCCC2)c1 2.07

---

# target: Aspartate--tRNA(Asp/Asn) ligase (Mycobacterium tuberculosis (strain ATCC 25618 / H37Rv)) (UniProt P9WFW3); further: in the data most compounds retested in dose-response had high values
# Sequence (whole entry): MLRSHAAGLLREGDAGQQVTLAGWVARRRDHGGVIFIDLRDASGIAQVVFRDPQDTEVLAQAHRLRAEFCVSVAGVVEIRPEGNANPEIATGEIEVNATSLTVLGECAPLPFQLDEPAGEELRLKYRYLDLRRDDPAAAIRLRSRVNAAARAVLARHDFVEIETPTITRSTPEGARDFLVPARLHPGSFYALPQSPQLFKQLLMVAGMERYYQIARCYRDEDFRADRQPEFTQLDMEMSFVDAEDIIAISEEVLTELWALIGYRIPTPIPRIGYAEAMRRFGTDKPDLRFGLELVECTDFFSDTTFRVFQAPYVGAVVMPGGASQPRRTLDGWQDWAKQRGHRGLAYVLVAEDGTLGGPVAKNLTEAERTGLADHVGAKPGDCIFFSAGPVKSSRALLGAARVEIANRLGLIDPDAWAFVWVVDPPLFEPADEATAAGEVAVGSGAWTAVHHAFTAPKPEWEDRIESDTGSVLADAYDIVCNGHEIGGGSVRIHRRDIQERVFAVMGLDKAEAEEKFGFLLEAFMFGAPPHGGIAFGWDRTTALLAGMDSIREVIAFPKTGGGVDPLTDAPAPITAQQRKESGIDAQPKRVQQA
# protocol notes: Assay for Asp RNA synthetase-1 from Mycobacterium tuberculosis
# Format: functional
# Set-up: scale not given: direction of the effect not stated beside the values
# condition summary: 30 µM
measure: Percent Effect (%)
Write the answer as a number in %, unit excluded.

Please report the measured Percent Effect for Cn1cc(-c2csc(N3CCOCC3)n2)cn1 2.54

Kindly indicate its recorded Percent Effect. Item: O=C(c1ccccc1N1CCOCC1)N1CCCC(n2cccn2)C1 (configuration not stated) 0.062

Provide one value: measured Percent Effect of Cc1ccc(N2CCCC(NCc3cccc4c3OCCO4)C2)nn1 (configuration not stated) 4.13

Input O=C(NCC(O)c1cccs1)c1cccc(Cl)c1 (configuration not stated) , output reported Percent Effect. -5.75

Supply recorded Percent Effect for CCn1c(CN2CCN(CC(N)=O)CC2)nc2c(F)cccc21 here. -3.37

// fetch Percent Effect given entry Fc1cccc(-c2nc(CN3CCCCC3Cn3cncn3)co2)c1 (configuration not stated) 0.0286

Quick one: give measured Percent Effect for Cc1cnc(CN2CCOC(CNc3cccnn3)C2)cn1 (configuration not stated) -2.97

Return Percent Effect (reported value) for this compound: O=C([C@H]1CCCO1)N1CCc2ncnc(NC3CC3)c2CC1 2.52

Hello, please tell me recorded Percent Effect for this one: O=C(CN1CCOC(Cn2cccn2)C1)Nc1nncs1 (configuration not stated) -1.58

Report Percent Effect for Cc1ncccc1OCC(=O)N1CCN[C@H]2CS(=O)(=O)C[C@H]21 7.97

Output measured Percent Effect for this item: CN(c1ccc(F)c(F)c1)S(=O)(=O)c1cc(C(=O)O)cs1 1.3

Using known records, supply Percent Effect for CC(C(=O)Nc1ncccn1)N1CCCN(c2nccs2)CC1 (configuration not stated) 0.767

---

# target: Aspartate--tRNA(Asp/Asn) ligase (Mycobacterium tuberculosis (strain ATCC 25618 / H37Rv)); further: in the data most compounds retested in dose-response had high values
# Sequence (whole entry): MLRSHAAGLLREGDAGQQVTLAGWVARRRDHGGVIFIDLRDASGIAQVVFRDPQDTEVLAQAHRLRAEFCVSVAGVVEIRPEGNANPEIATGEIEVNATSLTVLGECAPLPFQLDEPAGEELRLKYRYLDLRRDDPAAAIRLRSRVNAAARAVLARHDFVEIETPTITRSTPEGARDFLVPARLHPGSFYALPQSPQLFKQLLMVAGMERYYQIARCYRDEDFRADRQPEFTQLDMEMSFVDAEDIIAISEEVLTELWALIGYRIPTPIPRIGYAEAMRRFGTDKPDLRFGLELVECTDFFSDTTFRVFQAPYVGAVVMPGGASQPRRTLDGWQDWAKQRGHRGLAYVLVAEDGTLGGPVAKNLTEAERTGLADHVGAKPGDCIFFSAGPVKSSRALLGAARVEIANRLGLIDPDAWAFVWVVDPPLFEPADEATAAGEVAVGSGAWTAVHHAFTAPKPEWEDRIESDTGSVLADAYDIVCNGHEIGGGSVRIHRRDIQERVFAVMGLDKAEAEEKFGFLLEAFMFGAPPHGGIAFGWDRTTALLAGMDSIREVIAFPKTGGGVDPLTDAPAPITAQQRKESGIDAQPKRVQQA
# protocol notes: Assay for Asp RNA synthetase-1 from Mycobacterium tuberculosis
# Format: functional
# Parameters: scale not given: direction of the effect not stated beside the values
# condition summary: 30 µM
Assign Percent Effect to each entry below.
Give just the numeric value; % need not be written.

Determine its reported Percent Effect: CNc1nc(CNC(=O)Nc2ccccc2-c2noc(C)n2)cs1 -2.92

Give the value of Percent Effect reported for the following: CC(C)c1cc(NC(=O)CN2CCc3c(nc(C(C)C)n3C)C2)on1 -3.67

Complete the entry with Percent Effect for CN(C)c1ncc(CN2CCOC(C(=O)Nc3ccccc3)C2)cn1 (configuration not stated) 6.13

Indicate its recorded Percent Effect; the compound in question is COc1cccc(-n2nnc(C(=O)N3CCN(C)CC3C)c2C)c1 (configuration not stated) -2.92

Input Cc1ccc(NC2CCN(C(=O)c3cc[nH]n3)CC2)nn1 , output reported Percent Effect. -1.83

Please indicate Percent Effect recorded for COc1ncccc1NC(=O)c1cccc(C)n1 1.43

Name the recorded Percent Effect of the item Cc1c(C2CCCN(C(=O)Cc3ccccn3)C2)n2c(nc1=O)CCC2 (configuration not stated) in your answer. 2.63

Answer with reported Percent Effect of CC1CCCN(Cc2csc(-c3ncccn3)n2)CC1 (configuration not stated) -2.94

Return the recorded Percent Effect value; entry: Cc1[nH]ccc1C(=O)N1CCCC(c2nccn2Cc2cscn2)C1 (configuration not stated) -2.28

// fetch Percent Effect given entry O=C(Cc1ccsc1)NCC1OCCc2cn(CC3CC3)nc21 (configuration not stated) 1.47

Indicate its recorded Percent Effect; the compound in question is CC(=O)N1CCN(Cc2ccccn2)CC2(CC(=O)N(C)C2)C1 (configuration not stated) -4.78

Annotate the compound Cn1cc(C(=O)NC2CCN(C(=O)NCC3CCSCC3)CC2)cn1 with its measured Percent Effect. 3.16
